Data origin: paper PMC6720533

Please go through the items and note down their activity at 5 µM.
test system: RS4;11 cells; assay: WST-1 metabolic activity assay; assay type: cell-based; conditions: Homo sapiens, RS4-11, 72 h, read-out: metabolic activity
Numbers only, in %.

These solved cases illustrate the format of a correct answer.
{"molecule smiles": "Cc1ccc2c(=O)n3c(nc2c1)-c1ccc(F)cc1C3", "subject of test": "RS4;11 cells", "activity at 5 µM [%]": 91.4}
{"molecule smiles": "Cc1ccc2nc3n(c(=O)c2c1)Cc1ccccc1-3", "subject of test": "RS4;11 cells", "activity at 5 µM [%]": 61.3}
{"molecule smiles": "O=c1c2ccc(F)cc2nc2n1Cc1ccccc1-2", "subject of test": "RS4;11 cells", "activity at 5 µM [%]": 97.3}
{"molecule smiles": "O=c1c2ccccc2nc2n1Cc1cc(F)ccc1-2", "subject of test": "RS4;11 cells", "activity at 5 µM [%]": 76.6}

Dear colleague, could you please provide activity at 5 µM for the compounds listed below?
1. CC(=O)c1ccc2c(=O)n3c(nc2c1)-c1ccccc1C3
2. Cc1ccc2c(=O)n3c(nc2c1)-c1ccccc1C3
3. Cc1cc(C)c2nc3n(c(=O)c2c1)Cc1ccccc1-3
4. O=c1c2cc(Cl)ccc2nc2n1Cc1ccccc1-2

A.
1: 99.3; 2: 91.2; 3: 61.5; 4: 73.8

###

tested on: B- and T-ALL cells; assay: Proliferation, viable cell count by trypan blue exclusion; assay type: cell-based; conditions: Homo sapiens, read-out: IC50 values against B- and T-ALL cells
pIC50: −log10 of the molar value.
property measured: pIC50

Q. Which pIC50 value is on record for Cc1ccc(-c2cc3ccccc3c(N)n2)cc1 [FX-9, 3-(p-Tolyl)isoquinolin-1-amine] ?
A. 5.71 to 6.27

###

test system: SEM cells; test: Proliferation, viable cell count by trypan blue exclusion; assay type: cell-based, human; conditions: Homo sapiens, 72 h, read-out: IC50 based on proliferation
property measured: IC50 (nM)
Answers are plain numbers, in nM.

Q. Which IC50 value is on record for Cc1ccc(-c2cc3ccccc3c(N)n2)cc1 ?
A. 1460

###

system: SEM cells; assay: WST-1 metabolic activity assay; format: cell-based; details: Homo sapiens, 72 h, read-out: metabolic activity
property measured: activity at 10 µM (%)
One number for each entry, in %.

{"molecule": "Cc1ccc(-c2cc3ccccc3c(N)n2)cc1 [FX-9, 3-(p-Tolyl)isoquinolin-1-amine]", "result units": "%", "activity at 10 µM": 0.6}
{"molecule": "COc1ccc2c(N)nc(-c3ccccc3)cc2c1 [FX-42, 6-Methoxy-3-phenylisoquinolin-1-amine]", "result units": "%", "activity at 10 µM": 24.5}
{"molecule": "O=c1c2ccccc2nc2n1Cc1cc(F)ccc1-2 [FX-6]", "result units": "%", "activity at 10 µM": 51.4}

Dear colleague, could you please provide activity at 10 µM for the molecules listed below?
1. O=c1c2ccc(F)cc2nc2n1Cc1ccccc1-2 [FX-2]
2. Cc1cc(C)c2nc3n(c(=O)c2c1)Cc1ccccc1-3 [FX-8]
3. CC(=O)c1ccc2c(=O)n3c(nc2c1)-c1ccccc1C3 [FX-1]
4. Cc1ccc2c(=O)n3c(nc2c1)-c1ccccc1C3 [FX-4]

A.
69.8
14.5
97.7
64.9
